Quick reference for protein stability index among some variants
B1: KLHL14 (parent)
chain: WLYCYDPVMDVWARKQDMNTKRAI

variants of: B1; assay: protein stability index of a GFP-peptide fusion (GPS, HEK-293T) (PSI 1-6); higher = more stable; conditions: c terminus: a fixed tail appended;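 also: lentivirally expressed fusions sorted by FACS into six bins by GFP to DsRed ratio, PSI derived from sequencing read proportions per bin multiplied by bin number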
measurementName: protein stability index

{"columns": ["variantLabel", "measurementName", "reportedMeasurement"],
 "data": [
  ["D10Y", "protein stability index", 1.92],
  ["Y3I", "protein stability index", 2.06],
  ["A13S", "protein stability index", 2],
  ["K21V", "protein stability index", 1.91],
  ["V11G", "protein stability index", 1.62],
  ["P7K", "protein stability index", 2.24],
  ["Q16C", "protein stability index", 1.81],
  ["T20G", "protein stability index", 2.57],
  ["M9R", "protein stability index", 2.09],
  ["Y3N", "protein stability index", 2.12],
  ["M18I", "protein stability index", 2.28],
  ["K15A", "protein stability index", 1.68],
  ["Y5K", "protein stability index", 2.46],
  ["R22C", "protein stability index", 2.15],
  ["N19K", "protein stability index", 2.02],
  ["Y3Q", "protein stability index", 1.97],
  ["P7S", "protein stability index", 1.62],
  ["V8A", "protein stability index", 1.76],
  ["K21Q", "protein stability index", 1.86],
  ["D17N", "protein stability index", 1.91],
  ["M9G", "protein stability index", 1.77],
  ["I24F", "protein stability index", 1.42],
  ["V8F", "protein stability index", 2.18],
  ["D6F", "protein stability index", 2.99],
  ["N19W", "protein stability index", 2.53],
  ["D6T", "protein stability index", 2.47],
  ["R14T", "protein stability index", 1.54],
  ["Y3F", "protein stability index", 1.65],
  ["W1V", "protein stability index", 1.63],
  ["A13W", "protein stability index", 2.44],
  ["R22Y", "protein stability index", 2.01],
  ["R14S", "protein stability index", 1.88],
  ["P7Y", "protein stability index", 2.15],
  ["K21Y", "protein stability index", 1.92],
  ["D10A", "protein stability index", 1.88],
  ["I24V", "protein stability index", 2.53],
  ["A13T", "protein stability index", 2.1],
  ["P7R", "protein stability index", 1.87],
  ["A13H", "protein stability index", 2.67],
  ["R22G", "protein stability index", 1.69],
  ["M18G", "protein stability index", 3.03],
  ["Y3A", "protein stability index", 2.02],
  ["Q16L", "protein stability index", 1.72],
  ["T20Q", "protein stability index", 1.99],
  ["A23Y", "protein stability index", 1.92],
  ["D17Q", "protein stability index", 2.06]
]}

// data source = the supplement of paper PMC10567573
